run description: In vivo pharmacokinetics, IP injection or oral gavage
Set-up: species or system mouse
experimental conditions: male, B6SJLF1/J, mouse, plasma, po, 10 mg/kg
Measured Cmax, listed per entry for reference.
readout kind: Cmax (µg/mL)

molecule	readout kind	unit annotation	readout number
CN1CCN(Cc2ccc(-c3cnc4[nH]cc(-c5ccc6[nH]ccc6c5)c4c3)cc2)CC1 [compound 1, reference compound]	Cmax	µg/mL	0.476
OCCN1CCN(Cc2ccc(-c3cnc4[nH]cc(-c5cccc(Cl)c5)c4c3)cc2)CC1 [Prostetin/12k]	Cmax	µg/mL	0.184

====

# HGK (Homo sapiens): pIC50 values follow
# Sequence (O95819 whole entry): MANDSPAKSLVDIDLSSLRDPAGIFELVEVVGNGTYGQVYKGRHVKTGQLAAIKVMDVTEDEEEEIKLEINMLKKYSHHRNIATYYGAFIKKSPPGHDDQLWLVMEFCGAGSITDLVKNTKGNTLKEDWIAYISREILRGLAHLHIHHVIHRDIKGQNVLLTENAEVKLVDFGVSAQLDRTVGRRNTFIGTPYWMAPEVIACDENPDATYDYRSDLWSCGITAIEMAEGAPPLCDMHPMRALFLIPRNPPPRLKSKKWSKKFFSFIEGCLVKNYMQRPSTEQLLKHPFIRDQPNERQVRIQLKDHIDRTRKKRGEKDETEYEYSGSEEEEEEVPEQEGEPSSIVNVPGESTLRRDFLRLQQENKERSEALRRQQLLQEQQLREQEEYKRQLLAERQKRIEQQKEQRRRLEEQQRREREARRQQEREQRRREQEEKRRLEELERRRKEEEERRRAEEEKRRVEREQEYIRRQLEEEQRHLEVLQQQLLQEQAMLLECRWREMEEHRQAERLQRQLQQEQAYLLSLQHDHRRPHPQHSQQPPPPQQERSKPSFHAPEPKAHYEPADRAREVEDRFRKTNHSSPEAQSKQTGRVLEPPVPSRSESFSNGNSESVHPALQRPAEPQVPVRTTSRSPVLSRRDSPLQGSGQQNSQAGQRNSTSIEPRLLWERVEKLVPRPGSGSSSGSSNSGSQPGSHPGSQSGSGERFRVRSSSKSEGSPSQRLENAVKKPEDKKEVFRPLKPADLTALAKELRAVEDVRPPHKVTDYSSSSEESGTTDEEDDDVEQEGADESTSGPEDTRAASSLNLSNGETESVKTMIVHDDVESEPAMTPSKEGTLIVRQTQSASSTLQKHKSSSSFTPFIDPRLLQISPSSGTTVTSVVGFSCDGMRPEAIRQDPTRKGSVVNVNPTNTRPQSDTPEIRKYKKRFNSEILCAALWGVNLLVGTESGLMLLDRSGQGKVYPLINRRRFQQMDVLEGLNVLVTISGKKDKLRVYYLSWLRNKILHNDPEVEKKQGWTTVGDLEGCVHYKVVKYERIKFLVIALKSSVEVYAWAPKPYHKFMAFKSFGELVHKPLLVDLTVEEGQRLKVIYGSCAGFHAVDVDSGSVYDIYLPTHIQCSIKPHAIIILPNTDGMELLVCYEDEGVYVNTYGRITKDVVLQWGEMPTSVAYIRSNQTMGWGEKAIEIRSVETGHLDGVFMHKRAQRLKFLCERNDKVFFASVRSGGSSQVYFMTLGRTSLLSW
pIC50: −log10 of the molar value.
readout kind: pIC50

compound	readout kind	readout number
CN1CCN(Cc2ccc(-c3cnc4[nH]cc(-c5ccc6[nH]ccc6c5)c4c3)cc2)CC1 [compound 1, reference compound]	pIC50	8.23
OCCN1CCN(Cc2ccc(-c3cnc4[nH]cc(-c5cccc(Cl)c5)c4c3)cc2)CC1 [Prostetin/12k]	pIC50	9.52
